- Target Or Test System: Grb2 SH2 (UniProt P62993)
- Sequence (P62993 whole entry, looked up): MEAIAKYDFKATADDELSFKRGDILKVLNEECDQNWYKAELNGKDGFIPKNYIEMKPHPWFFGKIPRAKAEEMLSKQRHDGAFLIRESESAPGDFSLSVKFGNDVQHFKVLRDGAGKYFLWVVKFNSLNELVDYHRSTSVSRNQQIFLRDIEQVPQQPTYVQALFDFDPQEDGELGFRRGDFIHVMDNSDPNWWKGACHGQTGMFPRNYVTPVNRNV
- Procedure Details: SH2 binding enrichment of the phosphorylated peptide, bacterial display (enrichment ratio); higher = better substrate or ligand; peptides without Tyr show the background

- Ordered Residues: "EESREYDRLYE [PIK3R1_Y463_K459E]"
  SH2 binding enrichment: 0.671
- Ordered Residues: "IGEGTYGVLYK [CDK2_Y15_V18L]"
  SH2 binding enrichment: 0.635
- Ordered Residues: "LFDHIYTTQSD [RET_Y928]"
  SH2 binding enrichment: 0.925
- Ordered Residues: "IDAVCYFRMEN [NPHS2_Y194_I192V_YF]"
  SH2 binding enrichment: 0.764
- Ordered Residues: "NNHGNYIVLLG [ETFDH_Y172_R175L]"
  SH2 binding enrichment: 0.983
- Ordered Residues: "QAKRKYQEVSK [FES_Y156_A159V]"
  SH2 binding enrichment: 0.957
- Ordered Residues: "PQQLWYTHKKK [UBTF_Y207_E210K]"
  SH2 binding enrichment: 0.592
- Ordered Residues: "QRRFLYFFSFL [PTEN_Y176_V175L_YF]"
  SH2 binding enrichment: 1.05
- Ordered Residues: "IEEGTYGVVYR [CDK11B_Y449]"
  SH2 binding enrichment: 0.834
- Ordered Residues: "IETGRYEILTE"
  SH2 binding enrichment: 0.883
- Ordered Residues: "NFADPYRQLQF [CTNND2_Y503_YF]"
  SH2 binding enrichment: 0.878
- Ordered Residues: "ADARMYGVHPW [PLP1_Y207_L210H]"
  SH2 binding enrichment: 0.653
- Ordered Residues: "FLGRNYLETLM [DUS3L_Y610_D609N_YF]"
  SH2 binding enrichment: 1.02
- Ordered Residues: "KSIQLYDTPFE [SHB_Y297_G293S_YF]"
  SH2 binding enrichment: 0.766
- Ordered Residues: "SLKAFYGEDAK [ALDH3A1_Y272_E270A]"
  SH2 binding enrichment: 0.891
- Ordered Residues: "SSNLYYRWLTA [CNGA3_Y169]"
  SH2 binding enrichment: 0.791
- Ordered Residues: "PECEWYKNGVK [TTN_Y2112]"
  SH2 binding enrichment: 0.811
- Ordered Residues: "FGGTVYHSPVS [PRC1_Y511]"
  SH2 binding enrichment: 0.851
- Ordered Residues: "DAASNYARGHY [TUBA3E_Y103]"
  SH2 binding enrichment: 0.784
- Ordered Residues: "LNEQHYGGLTG [PGAM4_Y92_R90Q]"
  SH2 binding enrichment: 0.958
- Ordered Residues: "KGFRGYSFDDI [TMEM230_Y110_YF]"
  SH2 binding enrichment: 0.863
- Ordered Residues: "SAASSYSFSDL [EMD_Y59]"
  SH2 binding enrichment: 0.846
- Ordered Residues: "RSFPSYYTSHV [NEFL_Y442]"
  SH2 binding enrichment: 1.17
- Ordered Residues: "EVDETYVPKKF [ALB_Y521_E525K]"
  SH2 binding enrichment: 1.06
- Ordered Residues: "VNYGAYINDFN [GLB1_Y488_K493N]"
  SH2 binding enrichment: 9.16
- Ordered Residues: "SILTVYSKDNY [PANK2_Y400_A398T]"
  SH2 binding enrichment: 0.856
- Ordered Residues: "HNLDFYKMTTN [FGFR3_Y648_K650M_YF]"
  SH2 binding enrichment: 0.62
- Ordered Residues: "VSSPKYGSNDE [TMCC2_Y473_D476N]"
  SH2 binding enrichment: 0.722
- Ordered Residues: "RRNVYYYSYLL [PTEN_Y177_Y174N]"
  SH2 binding enrichment: 0.565
- Ordered Residues: "LEQDEYALRSH [HADHB_Y244]"
  SH2 binding enrichment: 0.755
- Ordered Residues: "FRQNVYIPGSN [PCDHGA1_Y895_YF]"
  SH2 binding enrichment: 0.804
- Ordered Residues: "KTTILHKLKLG [ARF1_Y35_Y35H]"
  SH2 binding enrichment: 1.5
- Ordered Residues: "FEHVGYTTLNR [CHN1_Y148_YF]"
  SH2 binding enrichment: 0.917
- Ordered Residues: "QPGTDYKIYRY [FN1_Y1970_L1974R]"
  SH2 binding enrichment: 0.734
- Ordered Residues: "MGHVNYGAYIN [GLB1_Y485_R482H]"
  SH2 binding enrichment: 5.27
- Ordered Residues: "KKRSVYLKVLF [CC2D2A_Y683]"
  SH2 binding enrichment: 0.869
- Ordered Residues: "FQLPFYNTVPS [BMPR1A_Y458_M460T_YF]"
  SH2 binding enrichment: 0.911
- Ordered Residues: "NVFGNYNQQPS [HNRNPA2B1_Y306_D302V]"
  SH2 binding enrichment: 0.822
- Ordered Residues: "HESEIYGKVCY [CSRP3_Y57_C58G]"
  SH2 binding enrichment: 0.77
- Ordered Residues: "MHLRQYELLGG [GNAS_Y391]"
  SH2 binding enrichment: 0.868
- Ordered Residues: "ARGMEYLASQK [FGFR2_Y616]"
  SH2 binding enrichment: 0.763
- Ordered Residues: "IATTIYSGDKI [UGGT2_Y823_A821T]"
  SH2 binding enrichment: 0.893
- Ordered Residues: "DESEDCRDTVV [CNNM3_Y456_Y456C]"
  SH2 binding enrichment: 0.97
- Ordered Residues: "LNLKEYNLVGG [GNAQ_Y356]"
  SH2 binding enrichment: 0.783
- Ordered Residues: "VEDQFYCVDCF [FHL1_Y208_YF]"
  SH2 binding enrichment: 1.71

###

- System: c-Abl (mouse)
- Procedure Details: phosphorylation enrichment, bacterial display (enrichment ratio); higher = better substrate or ligand; peptides without Tyr show the background

- Ordered Residues: "FPPTHYIRRVP [SLC4A11_Y820_YF]"
  phosphorylation enrichment: 0.71
- Ordered Residues: "QLCVSYPGGYT [PROS1_Y259_N258S]"
  phosphorylation enrichment: 0.683
- Ordered Residues: "FEELVYETVRV [FSHB_Y76_K72E]"
  phosphorylation enrichment: 11.5
- Ordered Residues: "IDSTPYGQWFE [RPS8_Y109_R110G_YF]"
  phosphorylation enrichment: 0.657
- Ordered Residues: "LTFHMYADPNI [SOS1_Y618_F623I_YF]"
  phosphorylation enrichment: 1.57
- Ordered Residues: "PHRSIYFSSPK [MPG_Y75_Y71H]"
  phosphorylation enrichment: 0.862
- Ordered Residues: "TNYCLYLRSLE [MTM1_Y71_R69C]"
  phosphorylation enrichment: 0.883
- Ordered Residues: "FEEDSYVERSQ [RET_Y905_K907E_YF]"
  phosphorylation enrichment: 0.866
- Ordered Residues: "SIIKDYFHRGT [GATM_Y203_A208T]"
  phosphorylation enrichment: 0.514
- Ordered Residues: "SHLEDYPFNAE [AKR1B10_Y310]"
  phosphorylation enrichment: 0.713
- Ordered Residues: "ADRTRYSAFGG [RBM4_Y361_A359T]"
  phosphorylation enrichment: 0.495
- Ordered Residues: "CEDMEYLESKQ [BTK_Y511_A508D]"
  phosphorylation enrichment: 0.828
- Ordered Residues: "EDDIIYTQDFT [STK11_Y362]"
  phosphorylation enrichment: 0.957
- Ordered Residues: "TDGNGYISFNE [LCP1_Y28]"
  phosphorylation enrichment: 0.624
- Ordered Residues: "DFPGNYSGFDD [POLR1C_Y33_YF]"
  phosphorylation enrichment: 0.588
- Ordered Residues: "DQVEQCKKELE [LMNA_Y259_Y259C]"
  phosphorylation enrichment: 0.746
- Ordered Residues: "TLLAFYMGNFS [GLB1_Y552_P549L]"
  phosphorylation enrichment: 1.06
- Ordered Residues: "SSDKVYAHQMD [MLH1_Y379_V384D]"
  phosphorylation enrichment: 0.442
- Ordered Residues: "PLGKDYRKVEG [MAP1A_Y1909_A1912V]"
  phosphorylation enrichment: 1.66
- Ordered Residues: "ADCRYYTFPQM [GAMT_Y223_A224T]"
  phosphorylation enrichment: 1.99
- Ordered Residues: "NKEAIYSGFIR [SMCHD1_Y283_YF]"
  phosphorylation enrichment: 33.6
- Ordered Residues: "FSQETYFRVSN [ABCD1_Y180_Q178E_YF]"
  phosphorylation enrichment: 0.661
- Ordered Residues: "GGGFGYQKTKK [DDX18_Y643]"
  phosphorylation enrichment: 0.556
- Ordered Residues: "GHMYAYDWISI [BEST1_Y227_L224M]"
  phosphorylation enrichment: 0.739
- Ordered Residues: "GGTPLYMDRQG [AGXT_Y194]"
  phosphorylation enrichment: 0.499

###

- Target Or Test System: FGFR1 (UniProt P11362)
- Sequence (P11362 whole entry, looked up): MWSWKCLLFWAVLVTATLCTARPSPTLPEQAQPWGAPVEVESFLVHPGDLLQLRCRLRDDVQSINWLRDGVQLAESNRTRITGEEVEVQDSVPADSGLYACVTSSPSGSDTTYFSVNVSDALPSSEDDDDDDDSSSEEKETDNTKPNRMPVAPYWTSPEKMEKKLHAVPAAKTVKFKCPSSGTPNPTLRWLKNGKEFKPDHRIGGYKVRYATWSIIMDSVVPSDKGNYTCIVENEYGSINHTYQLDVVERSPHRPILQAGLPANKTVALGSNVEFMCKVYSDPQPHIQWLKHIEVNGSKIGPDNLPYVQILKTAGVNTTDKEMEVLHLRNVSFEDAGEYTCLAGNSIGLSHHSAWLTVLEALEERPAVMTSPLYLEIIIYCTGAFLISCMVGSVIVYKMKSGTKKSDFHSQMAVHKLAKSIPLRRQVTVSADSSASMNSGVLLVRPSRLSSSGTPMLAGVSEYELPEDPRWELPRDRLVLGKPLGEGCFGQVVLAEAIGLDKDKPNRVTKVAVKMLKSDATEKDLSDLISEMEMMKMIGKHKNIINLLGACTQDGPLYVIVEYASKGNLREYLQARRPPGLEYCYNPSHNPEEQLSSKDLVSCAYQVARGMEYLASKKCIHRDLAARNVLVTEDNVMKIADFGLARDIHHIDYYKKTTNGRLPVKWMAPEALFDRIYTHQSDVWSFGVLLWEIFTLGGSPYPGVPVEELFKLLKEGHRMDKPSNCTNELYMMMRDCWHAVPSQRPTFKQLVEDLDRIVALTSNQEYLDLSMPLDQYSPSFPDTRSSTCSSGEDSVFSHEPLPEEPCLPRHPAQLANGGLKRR
- Procedure Details: phosphorylation enrichment, bacterial display (enrichment ratio); higher = better substrate or ligand; peptides without Tyr show the background

- Ordered Residues: "KDQGGYAMHQD [MAPT_Y29_T30A]"
  phosphorylation enrichment: 0.329
- Ordered Residues: "KILTHYKQPHT [KMT2D_Y5349_R5351Q]"
  phosphorylation enrichment: 0.437
- Ordered Residues: "PIPAAYNKFDQ [CDC73_Y290_R292K_YF]"
  phosphorylation enrichment: 0.57
- Ordered Residues: "YSSLGYPLPEG [ZSWIM4_Y87_P89L]"
  phosphorylation enrichment: 1.28
- Ordered Residues: "PVVKLYATDGR [RP1_Y199]"
  phosphorylation enrichment: 0.648
- Ordered Residues: "NQDRTYFESVR [SPEN_Y632_YF]"
  phosphorylation enrichment: 0.602
- Ordered Residues: "SDVDLYQVRTA [PSMD9_Y70]"
  phosphorylation enrichment: 0.419
- Ordered Residues: "HHTDEYEFDEL [TGM1_Y134_YF]"
  phosphorylation enrichment: 1.07
- Ordered Residues: "EMQAAYQKVVA [HBD_Y131_Q126E]"
  phosphorylation enrichment: 0.405
- Ordered Residues: "DYTEAYNPKIK [CLK1_Y305]"
  phosphorylation enrichment: 0.624
- Ordered Residues: "YFVVEYRDQKP [MUC17_Y4332]"
  phosphorylation enrichment: 13.8
- Ordered Residues: "KKCTRYIDCAL [ASPA_Y64_D68A]"
  phosphorylation enrichment: 0.394
- Ordered Residues: "VFDMLYQVANL [USP24_Y1087_L1089V]"
  phosphorylation enrichment: 0.943
- Ordered Residues: "FEKFLYFLPAS [DYNC2H1_Y346_H341Y_YF]"
  phosphorylation enrichment: 0.474
- Ordered Residues: "TETGRYEILTE"
  phosphorylation enrichment: 0.543
- Ordered Residues: "NNHGNYIVLLG [ETFDH_Y172_R175L]"
  phosphorylation enrichment: 2.81
- Ordered Residues: "ADKSAYLMGLN [MYH7_Y386]"
  phosphorylation enrichment: 0.526
- Ordered Residues: "PPAPRYHHSAV [LZTR1_Y119]"
  phosphorylation enrichment: 0.38
- Ordered Residues: "CLMILYRLKER [PTPRR_Y249]"
  phosphorylation enrichment: 0.509
- Ordered Residues: "FMRGMYFRMKD [PLA2G6_Y541_YF]"
  phosphorylation enrichment: 0.442
- Ordered Residues: "DAASNYARGHY [TUBA3E_Y103]"
  phosphorylation enrichment: 0.495
- Ordered Residues: "AQADIYKADFQ [IKBKG_Y308]"
  phosphorylation enrichment: 0.44
- Ordered Residues: "TRVMEYISCLD [CLTCL1_Y1043_R1046C]"
  phosphorylation enrichment: 0.599
- Ordered Residues: "RRFVFYFSFLL [PTEN_Y177_YF]"
  phosphorylation enrichment: 0.938
- Ordered Residues: "ARVDTYCRHNF [HLA-DRB1_Y107_A103R_YF]"
  phosphorylation enrichment: 0.443
- Ordered Residues: "KMGNEYVTKGQ [MYH7_Y410_V406M]"
  phosphorylation enrichment: 0.375
